Biological target: EPHA6 (human) (UniProt Q9UF33)
Test: KINOMEscan competition binding
Details: compound 1.0 µM
# maps each entry to its kinase still bound, per cent of control
Note: unit % is implicit; provide only the numeric part.

Worked examples follow.
CN(C)C/C=C/C(=O)Nc1cccc(C(=O)Nc2ccc(Nc3nccc(-c4cccnc4)n3)cc2)c1 :: 95
Cc1cc(NC(=O)c2cccc(NC(=O)/C=C/CN(C)C)c2)ccc1Nc1nccc(-c2cccnc2)n1 :: 100
CN(C)C/C=C/C(=O)Nc1cccc(C(=O)Nc2ccc(Nc3nccc(-c4c(-c5ccccc5)nn5ccccc45)n3)cc2)c1 :: 32

Next:
Could you share which kinase still bound, per cent of control value was measured for `CN(C)C/C=C/C(=O)Nc1cccc(C(=O)Nc2ccc(Nc3nccc(/C(C#N)=C4\Nc5ccccc5S4)n3)cc2)c1` ?
100

====

Tested on: EIF2AK4 KD2 (human), Q9P2K8 [S808G]
Sequence (Q9P2K8 whole entry S808G, looked up): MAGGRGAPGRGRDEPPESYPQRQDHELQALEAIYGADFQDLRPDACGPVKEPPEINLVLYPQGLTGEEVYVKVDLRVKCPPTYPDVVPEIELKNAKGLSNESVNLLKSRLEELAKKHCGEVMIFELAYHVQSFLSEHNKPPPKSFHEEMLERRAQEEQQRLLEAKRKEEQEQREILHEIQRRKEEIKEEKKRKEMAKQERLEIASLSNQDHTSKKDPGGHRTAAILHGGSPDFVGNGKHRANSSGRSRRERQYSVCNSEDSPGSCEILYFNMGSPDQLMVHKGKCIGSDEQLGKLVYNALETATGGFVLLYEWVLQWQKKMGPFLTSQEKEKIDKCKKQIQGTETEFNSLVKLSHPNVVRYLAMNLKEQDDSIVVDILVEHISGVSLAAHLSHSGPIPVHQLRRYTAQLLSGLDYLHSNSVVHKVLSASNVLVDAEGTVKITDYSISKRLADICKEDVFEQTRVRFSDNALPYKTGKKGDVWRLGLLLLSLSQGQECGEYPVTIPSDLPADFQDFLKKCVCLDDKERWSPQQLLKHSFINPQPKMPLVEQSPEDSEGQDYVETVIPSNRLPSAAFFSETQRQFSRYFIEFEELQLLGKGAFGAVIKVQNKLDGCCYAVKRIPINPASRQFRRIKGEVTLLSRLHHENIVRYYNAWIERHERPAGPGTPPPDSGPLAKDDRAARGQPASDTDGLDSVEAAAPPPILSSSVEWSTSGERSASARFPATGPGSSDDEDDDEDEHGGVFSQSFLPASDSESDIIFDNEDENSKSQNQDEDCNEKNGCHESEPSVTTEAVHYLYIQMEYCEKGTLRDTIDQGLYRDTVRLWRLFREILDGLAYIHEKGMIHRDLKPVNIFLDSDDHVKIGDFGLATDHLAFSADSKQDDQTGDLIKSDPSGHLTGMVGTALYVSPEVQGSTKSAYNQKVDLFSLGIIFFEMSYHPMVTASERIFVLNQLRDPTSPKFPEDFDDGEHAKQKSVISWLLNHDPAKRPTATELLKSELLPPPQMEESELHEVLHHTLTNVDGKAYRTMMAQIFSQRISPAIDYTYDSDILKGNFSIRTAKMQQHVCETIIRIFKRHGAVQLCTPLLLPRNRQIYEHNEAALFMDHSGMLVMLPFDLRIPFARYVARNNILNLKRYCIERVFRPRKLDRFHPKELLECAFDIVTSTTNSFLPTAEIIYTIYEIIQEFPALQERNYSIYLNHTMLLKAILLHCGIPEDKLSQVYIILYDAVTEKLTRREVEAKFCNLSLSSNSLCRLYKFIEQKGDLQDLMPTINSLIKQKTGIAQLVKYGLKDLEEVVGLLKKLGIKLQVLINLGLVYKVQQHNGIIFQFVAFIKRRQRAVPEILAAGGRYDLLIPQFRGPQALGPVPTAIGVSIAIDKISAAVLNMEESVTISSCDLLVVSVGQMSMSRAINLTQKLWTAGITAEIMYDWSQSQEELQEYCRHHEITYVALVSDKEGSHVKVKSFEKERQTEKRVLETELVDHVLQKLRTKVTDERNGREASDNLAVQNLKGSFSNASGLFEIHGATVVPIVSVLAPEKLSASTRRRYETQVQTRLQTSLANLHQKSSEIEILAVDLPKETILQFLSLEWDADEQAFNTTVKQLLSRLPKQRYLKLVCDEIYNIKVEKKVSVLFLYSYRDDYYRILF
Experiment: KINOMEscan competition binding
Settings: compound 1.0 µM
MEASURED PROPERTY: kinase still bound, per cent of control (%)
All answers are understood in %, so give the number only.

Completed entries (count: 3):
CN(C)C/C=C/C(=O)Nc1cccc(C(=O)Nc2ccc(Nc3nccc(/C(C#N)=C4\Nc5ccccc5S4)n3)cc2)c1 :: 55
CN(C)C/C=C/C(=O)Nc1cccc(C(=O)Nc2ccc(Nc3nccc(-c4cccnc4)n3)cc2)c1 :: 80
Cc1cc(NC(=O)c2cccc(NC(=O)/C=C/CN(C)C)c2)ccc1Nc1nccc(-c2cccnc2)n1 :: 100

Field: next molecule
Which kinase still bound, per cent of control is listed for `CN(C)C/C=C/C(=O)Nc1cccc(C(=O)Nc2ccc(Nc3nccc(-c4c(-c5ccccc5)nn5ccccc45)n3)cc2)c1` ?
76

====

Molecular target: STK39 (human) (UniProt Q9UEW8)
Experiment: KINOMEscan competition binding
Conditions: compound 1.0 µM
A collection of compounds and their measured kinase still bound, per cent of control
Numeric only. Scale: %

The examples below pair each entry with its known result.
Cc1cc(NC(=O)c2cccc(NC(=O)/C=C/CN(C)C)c2)ccc1Nc1nccc(-c2cccnc2)n1 :: 95
CN(C)C/C=C/C(=O)Nc1cccc(C(=O)Nc2ccc(Nc3nccc(-c4c(-c5ccccc5)nn5ccccc45)n3)cc2)c1 :: 82
CN(C)C/C=C/C(=O)Nc1cccc(C(=O)Nc2ccc(Nc3nccc(/C(C#N)=C4\Nc5ccccc5S4)n3)cc2)c1 :: 100

Could you now consider this next compound?
Please report the recorded kinase still bound, per cent of control for `CN(C)C/C=C/C(=O)Nc1cccc(C(=O)Nc2ccc(Nc3nccc(-c4cccnc4)n3)cc2)c1` .
95

====

Each item that follows carries a reported kinase still bound, per cent of control.
Biological target: PLK2 (human)
Test: KINOMEscan competition binding
Details: compound 1.0 µM
Field format: number, assumed %, no unit text.

// worked examples, kinase still bound, per cent of control included
CN(C)C/C=C/C(=O)Nc1cccc(C(=O)Nc2ccc(Nc3nccc(-c4cccnc4)n3)cc2)c1 :: 74
CN(C)C/C=C/C(=O)Nc1cccc(C(=O)Nc2ccc(Nc3nccc(/C(C#N)=C4\Nc5ccccc5S4)n3)cc2)c1 :: 65
Cc1cc(NC(=O)c2cccc(NC(=O)/C=C/CN(C)C)c2)ccc1Nc1nccc(-c2cccnc2)n1 :: 79

Can you share its kinase still bound, per cent of control? I mean this compound: `CN(C)C/C=C/C(=O)Nc1cccc(C(=O)Nc2ccc(Nc3nccc(-c4c(-c5ccccc5)nn5ccccc45)n3)cc2)c1`
81

====

Measured kinase still bound, per cent of control, listed per entry.
Target: CDK4 CCND3 (human) (UniProt P11802+P30281)
Sequence (P11802 whole entry, looked up): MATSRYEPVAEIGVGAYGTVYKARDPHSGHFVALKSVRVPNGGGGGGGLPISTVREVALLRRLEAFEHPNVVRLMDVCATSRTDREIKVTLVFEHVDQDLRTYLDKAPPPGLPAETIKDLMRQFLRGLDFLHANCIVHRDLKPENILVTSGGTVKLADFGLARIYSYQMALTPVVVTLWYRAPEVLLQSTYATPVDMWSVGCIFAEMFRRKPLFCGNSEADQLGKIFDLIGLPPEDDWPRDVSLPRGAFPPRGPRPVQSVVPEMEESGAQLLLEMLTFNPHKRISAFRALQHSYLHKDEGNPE
Sequence (P30281 whole entry, looked up): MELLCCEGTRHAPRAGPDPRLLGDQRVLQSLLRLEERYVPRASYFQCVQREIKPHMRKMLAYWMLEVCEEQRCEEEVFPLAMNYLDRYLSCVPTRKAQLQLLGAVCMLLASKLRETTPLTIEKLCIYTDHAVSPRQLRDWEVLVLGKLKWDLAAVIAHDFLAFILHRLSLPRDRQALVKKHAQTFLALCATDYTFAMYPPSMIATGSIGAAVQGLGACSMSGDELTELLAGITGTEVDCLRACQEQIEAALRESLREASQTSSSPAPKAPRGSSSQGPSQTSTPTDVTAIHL
Assay: KINOMEscan competition binding
Settings: compound 1.0 µM
# output: bare number, implied unit %

Guide cases for kinase still bound, per cent of control, answers given:
Cc1cc(NC(=O)c2cccc(NC(=O)/C=C/CN(C)C)c2)ccc1Nc1nccc(-c2cccnc2)n1 :: 60
CN(C)C/C=C/C(=O)Nc1cccc(C(=O)Nc2ccc(Nc3nccc(-c4cccnc4)n3)cc2)c1 :: 61
CN(C)C/C=C/C(=O)Nc1cccc(C(=O)Nc2ccc(Nc3nccc(/C(C#N)=C4\Nc5ccccc5S4)n3)cc2)c1 :: 100

What value of kinase still bound, per cent of control has been recorded for this entry: `CN(C)C/C=C/C(=O)Nc1cccc(C(=O)Nc2ccc(Nc3nccc(-c4c(-c5ccccc5)nn5ccccc45)n3)cc2)c1`
81

====

Biological target: STK32B (human)
Experiment: KINOMEscan competition binding
Conditions: compound 1.0 µM
MEASURED PROPERTY: kinase still bound, per cent of control (%)
I only need the number, in %, no unit after it.

Use the examples below as a reference point.
CN(C)C/C=C/C(=O)Nc1cccc(C(=O)Nc2ccc(Nc3nccc(-c4cccnc4)n3)cc2)c1 :: 100
CN(C)C/C=C/C(=O)Nc1cccc(C(=O)Nc2ccc(Nc3nccc(-c4c(-c5ccccc5)nn5ccccc45)n3)cc2)c1 :: 30
CN(C)C/C=C/C(=O)Nc1cccc(C(=O)Nc2ccc(Nc3nccc(/C(C#N)=C4\Nc5ccccc5S4)n3)cc2)c1 :: 99

As a next step, examine the compound that follows.
Reported kinase still bound, per cent of control, compound `Cc1cc(NC(=O)c2cccc(NC(=O)/C=C/CN(C)C)c2)ccc1Nc1nccc(-c2cccnc2)n1` : ____
90

====

Here the recorded kinase still bound, per cent of control is given for each entry.
Target: YSK4 (human) (UniProt Q56UN5)
Sequence (Q56UN5 whole entry, looked up): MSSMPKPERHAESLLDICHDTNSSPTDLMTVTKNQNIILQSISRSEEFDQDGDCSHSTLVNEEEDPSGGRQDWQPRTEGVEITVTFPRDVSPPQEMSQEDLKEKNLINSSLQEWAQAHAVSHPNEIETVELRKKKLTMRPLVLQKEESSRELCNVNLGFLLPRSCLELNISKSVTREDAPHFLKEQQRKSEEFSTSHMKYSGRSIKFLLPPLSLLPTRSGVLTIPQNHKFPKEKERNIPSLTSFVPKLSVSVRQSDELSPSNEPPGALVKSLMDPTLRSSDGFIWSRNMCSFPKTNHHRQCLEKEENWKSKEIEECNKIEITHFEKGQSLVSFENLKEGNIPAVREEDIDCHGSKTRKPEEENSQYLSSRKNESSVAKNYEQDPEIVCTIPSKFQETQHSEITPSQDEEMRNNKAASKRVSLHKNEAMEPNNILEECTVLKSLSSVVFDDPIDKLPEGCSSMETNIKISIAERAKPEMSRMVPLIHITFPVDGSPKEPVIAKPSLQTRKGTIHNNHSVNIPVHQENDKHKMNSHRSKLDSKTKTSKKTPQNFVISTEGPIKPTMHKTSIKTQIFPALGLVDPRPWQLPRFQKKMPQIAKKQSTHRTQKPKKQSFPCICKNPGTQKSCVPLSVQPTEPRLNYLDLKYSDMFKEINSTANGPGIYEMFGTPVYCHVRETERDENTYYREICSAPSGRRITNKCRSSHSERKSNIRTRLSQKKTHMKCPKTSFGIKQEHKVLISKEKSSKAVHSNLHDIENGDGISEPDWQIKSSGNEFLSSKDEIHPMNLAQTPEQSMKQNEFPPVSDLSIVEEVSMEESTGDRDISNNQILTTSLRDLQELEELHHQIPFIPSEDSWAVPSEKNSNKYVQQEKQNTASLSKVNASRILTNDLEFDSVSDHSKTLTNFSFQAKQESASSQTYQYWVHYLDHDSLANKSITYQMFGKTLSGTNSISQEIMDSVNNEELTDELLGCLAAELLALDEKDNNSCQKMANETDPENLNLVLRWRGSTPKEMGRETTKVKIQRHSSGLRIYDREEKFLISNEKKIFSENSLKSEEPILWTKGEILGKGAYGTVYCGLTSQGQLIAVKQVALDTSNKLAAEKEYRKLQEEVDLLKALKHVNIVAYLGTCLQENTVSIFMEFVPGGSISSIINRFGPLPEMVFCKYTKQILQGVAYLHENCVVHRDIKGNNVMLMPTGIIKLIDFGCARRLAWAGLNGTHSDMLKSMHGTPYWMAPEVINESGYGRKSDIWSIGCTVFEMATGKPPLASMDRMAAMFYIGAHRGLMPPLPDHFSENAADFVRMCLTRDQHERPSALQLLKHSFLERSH
Assay: KINOMEscan competition binding
Conditions: compound 1.0 µM
Number only, in %; omit the unit.

CN(C)C/C=C/C(=O)Nc1cccc(C(=O)Nc2ccc(Nc3nccc(-c4cccnc4)n3)cc2)c1 :: 0.1
Cc1cc(NC(=O)c2cccc(NC(=O)/C=C/CN(C)C)c2)ccc1Nc1nccc(-c2cccnc2)n1 :: 65
CN(C)C/C=C/C(=O)Nc1cccc(C(=O)Nc2ccc(Nc3nccc(/C(C#N)=C4\Nc5ccccc5S4)n3)cc2)c1 :: 59

Moving on to the next compound.
Quick check: kinase still bound, per cent of control of `CN(C)C/C=C/C(=O)Nc1cccc(C(=O)Nc2ccc(Nc3nccc(-c4c(-c5ccccc5)nn5ccccc45)n3)cc2)c1` ?
62

====

Target: UniProtKB O75914
Sequence (O75914 whole entry, looked up): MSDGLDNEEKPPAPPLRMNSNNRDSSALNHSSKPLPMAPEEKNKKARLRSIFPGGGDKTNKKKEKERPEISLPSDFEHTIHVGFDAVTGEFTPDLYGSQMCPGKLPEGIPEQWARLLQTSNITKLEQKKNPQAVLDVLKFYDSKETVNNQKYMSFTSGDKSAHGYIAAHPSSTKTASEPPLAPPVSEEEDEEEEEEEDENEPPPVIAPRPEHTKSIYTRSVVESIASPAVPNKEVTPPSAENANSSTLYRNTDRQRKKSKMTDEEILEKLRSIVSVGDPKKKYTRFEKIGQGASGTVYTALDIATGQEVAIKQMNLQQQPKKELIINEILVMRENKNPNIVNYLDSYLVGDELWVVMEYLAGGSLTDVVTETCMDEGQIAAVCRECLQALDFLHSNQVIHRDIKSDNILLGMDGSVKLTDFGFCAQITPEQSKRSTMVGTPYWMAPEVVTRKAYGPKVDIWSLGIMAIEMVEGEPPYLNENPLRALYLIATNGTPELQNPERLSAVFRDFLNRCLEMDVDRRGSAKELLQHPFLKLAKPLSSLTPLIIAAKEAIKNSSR
Assay: KINOMEscan competition binding
Details: compound 1.0 µM
Listing: kinase still bound, per cent of control of selected compounds
All answers are understood in %, so give the number only.

CN(C)C/C=C/C(=O)Nc1cccc(C(=O)Nc2ccc(Nc3nccc(/C(C#N)=C4\Nc5ccccc5S4)n3)cc2)c1 :: 84
CN(C)C/C=C/C(=O)Nc1cccc(C(=O)Nc2ccc(Nc3nccc(-c4cccnc4)n3)cc2)c1 :: 100
Cc1cc(NC(=O)c2cccc(NC(=O)/C=C/CN(C)C)c2)ccc1Nc1nccc(-c2cccnc2)n1 :: 100

Switching to the query record.
Need kinase still bound, per cent of control of `CN(C)C/C=C/C(=O)Nc1cccc(C(=O)Nc2ccc(Nc3nccc(-c4c(-c5ccccc5)nn5ccccc45)n3)cc2)c1` , thanks.
52

====

Each entry below carries its reported kinase still bound, per cent of control.
Biological target: PLK1 (human)
Assay: KINOMEscan competition binding
Conditions: compound 1.0 µM
Report the figure in % without appending any unit label.

Use these answered entries as a reference point.
CN(C)C/C=C/C(=O)Nc1cccc(C(=O)Nc2ccc(Nc3nccc(-c4c(-c5ccccc5)nn5ccccc45)n3)cc2)c1 :: 100
Cc1cc(NC(=O)c2cccc(NC(=O)/C=C/CN(C)C)c2)ccc1Nc1nccc(-c2cccnc2)n1 :: 100
CN(C)C/C=C/C(=O)Nc1cccc(C(=O)Nc2ccc(Nc3nccc(/C(C#N)=C4\Nc5ccccc5S4)n3)cc2)c1 :: 96

Shift focus to the following entry.
Requested read-out: kinase still bound, per cent of control. Entry: `CN(C)C/C=C/C(=O)Nc1cccc(C(=O)Nc2ccc(Nc3nccc(-c4cccnc4)n3)cc2)c1`
100

====

Molecular target: MAPK4 (human) (UniProt P31152)
Sequence (P31152 whole entry, looked up): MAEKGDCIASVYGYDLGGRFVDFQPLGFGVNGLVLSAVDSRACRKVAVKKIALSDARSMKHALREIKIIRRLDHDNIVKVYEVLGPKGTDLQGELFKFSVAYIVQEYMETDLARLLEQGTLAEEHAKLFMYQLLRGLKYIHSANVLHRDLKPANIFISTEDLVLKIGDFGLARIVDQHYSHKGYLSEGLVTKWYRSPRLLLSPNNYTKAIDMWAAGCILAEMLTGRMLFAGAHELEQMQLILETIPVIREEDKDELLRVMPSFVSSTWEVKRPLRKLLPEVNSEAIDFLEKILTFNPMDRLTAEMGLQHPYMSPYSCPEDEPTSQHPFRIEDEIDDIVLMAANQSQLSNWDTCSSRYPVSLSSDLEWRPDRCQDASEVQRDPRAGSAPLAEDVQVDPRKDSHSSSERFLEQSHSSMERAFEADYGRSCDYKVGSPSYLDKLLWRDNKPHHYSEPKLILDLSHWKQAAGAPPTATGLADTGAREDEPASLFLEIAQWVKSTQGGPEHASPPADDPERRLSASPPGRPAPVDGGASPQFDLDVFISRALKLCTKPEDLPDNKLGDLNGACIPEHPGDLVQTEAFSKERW
Experiment: KINOMEscan competition binding
Conditions: compound 1.0 µM
MEASURED PROPERTY: kinase still bound, per cent of control
Give the figure together with its unit, number first.

Cc1cc(NC(=O)c2cccc(NC(=O)/C=C/CN(C)C)c2)ccc1Nc1nccc(-c2cccnc2)n1 :: 81%
CN(C)C/C=C/C(=O)Nc1cccc(C(=O)Nc2ccc(Nc3nccc(-c4cccnc4)n3)cc2)c1 :: 11%
CN(C)C/C=C/C(=O)Nc1cccc(C(=O)Nc2ccc(Nc3nccc(/C(C#N)=C4\Nc5ccccc5S4)n3)cc2)c1 :: 100%

Consider the record given below.
Item under review: `CN(C)C/C=C/C(=O)Nc1cccc(C(=O)Nc2ccc(Nc3nccc(-c4c(-c5ccccc5)nn5ccccc45)n3)cc2)c1` . Reported kinase still bound, per cent of control?
94%

====

Biological target: PIM2 (human)
Assay: KINOMEscan competition binding
Details: compound 1.0 µM
Listing of recorded kinase still bound, per cent of control by entry.
Entry rule: numbers only, all in %.

I would be grateful if you could share the reported kinase still bound, per cent of control for `Cc1cc(NC(=O)c2cccc(NC(=O)/C=C/CN(C)C)c2)ccc1Nc1nccc(-c2cccnc2)n1` .
100

Which measured kinase still bound, per cent of control value corresponds to `CN(C)C/C=C/C(=O)Nc1cccc(C(=O)Nc2ccc(Nc3nccc(/C(C#N)=C4\Nc5ccccc5S4)n3)cc2)c1` ?
51

Using the record for `CN(C)C/C=C/C(=O)Nc1cccc(C(=O)Nc2ccc(Nc3nccc(-c4c(-c5ccccc5)nn5ccccc45)n3)cc2)c1` , report its kinase still bound, per cent of control.
100

For the molecule shown here, `CN(C)C/C=C/C(=O)Nc1cccc(C(=O)Nc2ccc(Nc3nccc(-c4cccnc4)n3)cc2)c1` , give the reported kinase still bound, per cent of control.
100
